Listing of entries alongside the reported CC50.
# experiment_summary: in vitro
# conditions_used: human
measure_name: CC50 (µM)

Cc1cn(-c2cc(NC(=O)c3ccc(C)c(Nc4nccc(-c5cccnc5)n4)c3)cc(C(F)(F)F)c2)cn1 [Nilotinib] ... 5.4
Cc1ccc2nc(NCCN)c3ncc(C)n3c2c1 [BMS-345541] ... 3.9
CNC(=O)c1cc(Oc2ccc(NC(=O)Nc3ccc(Cl)c(C(F)(F)F)c3)cc2)ccn1 [Sorafenib] ... 20.7

---

# Test system: U937 cells
measure_name: CC50 (µM)

CC(C)(C)n1nc(-c2ccc(Cl)cc2)c2c(N)ncnc21 ... 40.3
Nc1cccc(-c2cc3c(Oc4cccc(O)c4)ncnc3[nH]2)c1 ... 5.4
